target: TDO (Homo sapiens, UniProt P48775); test: A172 kynurenine cell-based assay; set-up: This assay utilised cancer cells which expressed either TDO or IDO; endogenous in cells; host or cells: A172 (human glioblastoma); conditions: A172 human glioblastoma cells, 48 hours, 500 μM L-tryptophan; read-out: A172 Kynurenine cell based assay pIC50 (converted)
Sequence (P48775 whole entry): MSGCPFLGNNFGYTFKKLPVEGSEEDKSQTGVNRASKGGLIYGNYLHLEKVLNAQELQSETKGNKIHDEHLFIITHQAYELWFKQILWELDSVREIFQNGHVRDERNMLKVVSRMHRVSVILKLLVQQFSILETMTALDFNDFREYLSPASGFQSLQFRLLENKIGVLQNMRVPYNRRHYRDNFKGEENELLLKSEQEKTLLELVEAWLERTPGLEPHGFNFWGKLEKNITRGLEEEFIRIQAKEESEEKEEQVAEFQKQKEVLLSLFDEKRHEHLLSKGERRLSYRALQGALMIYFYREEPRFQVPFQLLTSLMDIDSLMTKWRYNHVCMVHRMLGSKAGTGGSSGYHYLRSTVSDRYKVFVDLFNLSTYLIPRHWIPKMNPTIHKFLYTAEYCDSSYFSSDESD
Give IC50 for every item shown.

(Q) What does the record list as IC50 for CC(=O)N1CCN(c2cc(C(F)(F)F)cc3[nH]ncc23)CC1(C)C ?
(A) < 3.16 µM

(Q) I would be grateful if you could share the reported IC50 for CN1C(=O)[C@@H]2CC[C@H]1CN(c1cc(Br)cc3[nH]ncc13)C2 .
(A) < 3.16 µM

(Q) GET /values?readout=IC50&item= OCCNc1cc(Cl)cc2[nH]ncc12
(A) 3.24 to 31.6 µM

(Q) Consider the compound shown here: O=S(=O)(c1ccccc1)N1CCN(c2cc(Cl)cc3[nH]ncc23)CC1 What is its recorded IC50?
(A) < 3.16 µM

(Q) May I ask what IC50 has been recorded for O=C1N[C@H]2CC[C@@H]1CN(c1cc(Br)cc3[nH]ncc13)C2 ?
(A) < 3.16 µM
